Reported Screen- Human/No Protein values follow for various molecules
TESTED TARGET: human vWF A1 domain (SEQ ID NO 5) (Homo sapiens, UniProt P04275, T1381A)
Sequence (P04275 with tags, fused parts or gaps T1381A): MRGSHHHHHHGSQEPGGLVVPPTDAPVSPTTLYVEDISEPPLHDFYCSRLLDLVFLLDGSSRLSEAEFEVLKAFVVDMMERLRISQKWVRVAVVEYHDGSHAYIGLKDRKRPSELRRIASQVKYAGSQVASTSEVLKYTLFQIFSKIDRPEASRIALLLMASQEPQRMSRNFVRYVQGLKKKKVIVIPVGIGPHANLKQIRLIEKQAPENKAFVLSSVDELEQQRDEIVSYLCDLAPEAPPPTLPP
PROTOCOL SUMMARY: 3-point dot blot screen, human vWF A1 domain
Assay type: binding
REPORTED CONDITIONS: rRfY aptamers; 100 nM human vWF A1 domain; ratio of fraction bound with target to fraction bound without target
Oligonucleotides are written 5' to 3', each unit as a sugar letter and its base; * is a phosphorothioate linkage, no mark a phosphodiester; rarer units and linkages stand in square brackets, end groups in braces. Plain capitals give the bases only. r = 2'-OH (RNA); f = 2'-fluoro
# output: bare number, no unit

molecule="AMX201.G9: rRfY aptamer clone (nucleic acid) rGrGrArGfCrGfCrAfCfUfCrArGfCfCrAfCfUrArAfCrGrGfCfUrGrAfUfCfUfCrArGrGrAfCfUrArArAfUrArGfUfCrArAfCrArArGrGrAfUrGfCrGfUfUfUfCrGrAfCfCfUfCfUfCfUrGfCfUrArGfC" measurement_label="Screen- Human/No Protein" value=2.06

Okay, now this molecule:
// query Indicate the recorded Screen- Human/No Protein value for this molecule: AMX201.H3: rRfY aptamer clone (nucleic acid) rGrGrArGfCrGfCrAfCfUfCrArGfCfCrAfCfUrArAfCrGrGfUfUrGrAfUfCfUfCrArGrGrAfCfUrArArAfUrArGfUfCrArAfCrArArGrGrAfUrGfCrGfUfUfUfCrGrAfCfCfUfCfUfCfUrGfCfUrArGfC
// result 1.88
